Assay: Solubility experiments in different media (thermodynamic solubility)
Type: physicochemical
Settings: FeSSIF, 37 °C, fessif, thermodynamic from solid, FeSSIF, read-out: Solubility of free base crystal form I
Description: The solubility of the free base crystal form I and the free base crystal form II in media such as pH 1.0-8.0 USP buffer, artificial simulated gastric fluid (FaSSGF), fasted-state artificial simulated intestinal fluid (FaSSIF), fed-state artificial simulated intestinal fluid (FeSSIF) and pure water was compared to provide a basis for the evaluation of drugability.
Measured Parameter: solubility at 2 h (µg/mL)
Give a bare numeral; the unit µg/mL is implied.

Could you share which solubility at 2 h value was measured for CC(C)(O)c1nc(N2C[C@H]3CN(C(=O)c4c(F)cccc4-c4ncccn4)C[C@H]3C2)ncc1F [free base crystal form I] ?
311

* * *

assay: Solubility experiments in different media (thermodynamic solubility); assay type: physicochemical; settings: FaSSIF, 37 °C, fassif, thermodynamic from solid, FaSSIF, read-out: Solubility of free base crystal form II
Measured Parameter: solubility at 2 h (µg/mL)
Give a bare numeral; the unit µg/mL is implied.

Could you share which solubility at 2 h value was measured for CC(C)(O)c1nc(N2C[C@H]3CN(C(=O)c4c(F)cccc4-c4ncccn4)C[C@H]3C2)ncc1F [free base crystal form II] ?
60

* * *

assay: PK studies in animals of the free base crystal forms; type: in vivo; settings: Sprague-Dawley (SD), rat, plasma, po, 30 mg/kg, 30MPK, 0.5%CMC-Na suspension, SD rats
Measured Parameter: Cmax
Give the figure together with its unit, number first.

Could you share which Cmax value was measured for CC(C)(O)c1nc(N2C[C@H]3CN(C(=O)c4c(F)cccc4-c4ncccn4)C[C@H]3C2)ncc1F [free base crystal form I] ?
6010 ng/mL

* * *

test: Solubility experiments in different media (thermodynamic solubility); type: physicochemical; conditions: FaSSGF (artificial simulated gastric fluid), 37 °C, fassgf or other biorelevant, thermodynamic from solid, FaSSGF, read-out: Solubility of free base crystal form II
Measured Parameter: solubility at 2 h (µg/mL)
Give a bare numeral; the unit µg/mL is implied.

Could you share which solubility at 2 h value was measured for CC(C)(O)c1nc(N2C[C@H]3CN(C(=O)c4c(F)cccc4-c4ncccn4)C[C@H]3C2)ncc1F [free base crystal form II] ?
131

* * *

experiment: PK studies in animals of the free base crystal forms; type: in vivo; details: Sprague-Dawley (SD), rat, plasma, po, 30 mg/kg, 30MPK, 0.5%CMC-Na suspension, SD rats
Measured Parameter: half-life (h)
Give a bare numeral; the unit h is implied.

Could you share which half-life value was measured for CC(C)(O)c1nc(N2C[C@H]3CN(C(=O)c4c(F)cccc4-c4ncccn4)C[C@H]3C2)ncc1F [free base crystal form I] ?
1.9

* * *

test: Solubility experiments in different media (thermodynamic solubility); format: physicochemical; conditions: USP buffer, 37 °C, pH 8, aqueous buffer, thermodynamic from solid, pH 8.0, read-out: Solubility of free base crystal form II
Measured Parameter: solubility at 2 h (µg/mL)
Give a bare numeral; the unit µg/mL is implied.

Could you share which solubility at 2 h value was measured for CC(C)(O)c1nc(N2C[C@H]3CN(C(=O)c4c(F)cccc4-c4ncccn4)C[C@H]3C2)ncc1F [free base crystal form II] ?
47

* * *

target: CYP450 2C19 (Homo sapiens, UniProt P33261); construct: Human liver microsome incubation system was used; from tissue; host or cells: human liver microsomes; test: CYP enzyme single point inhibition test, human liver microsomes; type: in vitro ADME; details: 20 min incubation
Sequence (P33261 whole entry): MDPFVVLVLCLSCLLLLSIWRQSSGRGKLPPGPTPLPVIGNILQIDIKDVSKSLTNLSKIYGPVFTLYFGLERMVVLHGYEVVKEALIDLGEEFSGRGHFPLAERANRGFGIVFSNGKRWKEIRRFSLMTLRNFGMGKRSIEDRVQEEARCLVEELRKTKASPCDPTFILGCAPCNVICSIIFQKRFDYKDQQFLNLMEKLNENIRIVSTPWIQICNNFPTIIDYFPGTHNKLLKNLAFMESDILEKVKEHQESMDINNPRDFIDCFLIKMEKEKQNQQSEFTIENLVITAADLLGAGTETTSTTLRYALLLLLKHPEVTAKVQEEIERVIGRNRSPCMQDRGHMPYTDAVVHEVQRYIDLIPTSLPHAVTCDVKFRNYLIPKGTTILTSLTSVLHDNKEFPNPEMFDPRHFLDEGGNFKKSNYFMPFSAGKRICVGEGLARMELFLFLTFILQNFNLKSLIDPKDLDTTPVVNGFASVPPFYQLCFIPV
Kindly state IC50 for each of the entries shown.
Give a bare numeral; the unit µM is implied.

Could you share which IC50 value was measured for Cc1nc(N2C[C@H]3CN(C(=O)c4cccc(F)c4-n4nccn4)C[C@H]3C2)nc(C(C)(C)O)c1F ?
82.7

Could you share which IC50 value was measured for CC(C)(O)c1nc(N2C[C@H]3CN(C(=O)c4c(F)cccc4-c4ncccn4)C[C@H]3C2)ncc1F ?
82.7

* * *

Assay: Solubility experiments in different media (thermodynamic solubility)
Type: physicochemical
Conditions: USP buffer, 37 °C, pH 5, aqueous buffer, thermodynamic from solid, pH 5.0, read-out: Solubility of free base crystal form II
Source text: The solubility of the free base crystal form I and the free base crystal form II in media such as pH 1.0-8.0 USP buffer, artificial simulated gastric fluid (FaSSGF), fasted-state artificial simulated intestinal fluid (FaSSIF), fed-state artificial simulated intestinal fluid (FeSSIF) and pure water was compared to provide a basis for the evaluation of drugability.
Measured Parameter: solubility at 2 h (µg/mL)
Give a bare numeral; the unit µg/mL is implied.

Could you share which solubility at 2 h value was measured for CC(C)(O)c1nc(N2C[C@H]3CN(C(=O)c4c(F)cccc4-c4ncccn4)C[C@H]3C2)ncc1F [free base crystal form II] ?
50

* * *

assay: PK studies in animals of the free base crystal forms; type: in vivo; details: Sprague-Dawley (SD), rat, plasma, po, 5 mg/kg, 5MPK, 0.5%CMC-Na, SD rats
Measured Parameter: bioavailability
Give the figure together with its unit, number first.

Could you share which bioavailability value was measured for CC(C)(O)c1nc(N2C[C@H]3CN(C(=O)c4c(F)cccc4-c4ncccn4)C[C@H]3C2)ncc1F [free base crystal form I] ?
7%

* * *

experiment: Solubility experiments in different media (thermodynamic solubility); type: physicochemical; details: USP buffer pH 2.0, 37 °C, pH 2, simulated gastric fluid, thermodynamic from solid, pH 2.0, read-out: Solubility of free base crystal form II
Measured Parameter: solubility at 2 h (µg/mL)
Give a bare numeral; the unit µg/mL is implied.

Could you share which solubility at 2 h value was measured for CC(C)(O)c1nc(N2C[C@H]3CN(C(=O)c4c(F)cccc4-c4ncccn4)C[C@H]3C2)ncc1F [free base crystal form II] ?
89

* * *

assay: Solubility experiments in different media (thermodynamic solubility); format: physicochemical; details: USP buffer pH 1.0, 37 °C, pH 1, simulated gastric fluid, thermodynamic from solid, pH 1.0, read-out: Solubility of free base crystal form II
Measured Parameter: solubility at 2 h (µg/mL)
Give a bare numeral; the unit µg/mL is implied.

Could you share which solubility at 2 h value was measured for CC(C)(O)c1nc(N2C[C@H]3CN(C(=O)c4c(F)cccc4-c4ncccn4)C[C@H]3C2)ncc1F [free base crystal form II] ?
599

* * *

experiment: PK studies in animals of the free base crystal forms; assay type: in vivo; settings: Sprague-Dawley (SD), rat, plasma, po, 5 mg/kg, 5MPK, 0.5%CMC-Na, SD rats
Measured Parameter: AUC(0-t) (ng·h/mL)
Give a bare numeral; the unit ng·h/mL is implied.

Could you share which AUC(0-t) value was measured for CC(C)(O)c1nc(N2C[C@H]3CN(C(=O)c4c(F)cccc4-c4ncccn4)C[C@H]3C2)ncc1F [free base crystal form I] ?
2390

* * *

Assay: PK studies in animals of the free base crystal forms
Format: in vivo
Details: Sprague-Dawley (SD), rat, 2 mg/kg; IV, 2MPK, 20%HP-B-CD solution, SD rats, plasma
Method: The pharmacokinetic of the free base crystal form after a single intravenous administration was studied, and the bioavailability of the free base crystal form I and the free base crystal form II after oral administration were calculated. The free base crystal form I was suspended with 0.5% CMCC-Na aqueous solution, and the free base crystal form I was suspended with 0.5% HPMC aqueous solution. […]
Measured Parameter: C0 (ng/mL)
Give a bare numeral; the unit ng/mL is implied.

Could you share which C0 value was measured for CC(C)(O)c1nc(N2C[C@H]3CN(C(=O)c4c(F)cccc4-c4ncccn4)C[C@H]3C2)ncc1F [free base crystal form I] ?
2910

* * *

test: Solubility experiments in different media (thermodynamic solubility); assay type: physicochemical; conditions: FaSSCoF, 37 °C, fassgf or other biorelevant, thermodynamic from solid, FaSSCoF, read-out: Solubility of free base crystal form II
Measured Parameter: solubility at 2 h (mg/mL)
Give a bare numeral; the unit mg/mL is implied.

Could you share which solubility at 2 h value was measured for CC(C)(O)c1nc(N2C[C@H]3CN(C(=O)c4c(F)cccc4-c4ncccn4)C[C@H]3C2)ncc1F [free base crystal form II] ?
0.051

* * *

test: Solubility experiments in different media (thermodynamic solubility); assay type: physicochemical; conditions: FeSSIF, 37 °C, fessif, thermodynamic from solid, FeSSIF, read-out: Solubility of free base crystal form II
Measured Parameter: solubility at 2 h
Give the figure together with its unit, number first.

Could you share which solubility at 2 h value was measured for CC(C)(O)c1nc(N2C[C@H]3CN(C(=O)c4c(F)cccc4-c4ncccn4)C[C@H]3C2)ncc1F [free base crystal form II] ?
100 µg/mL

* * *

experiment: PK studies in animals of the free base crystal forms; format: in vivo; details: Sprague-Dawley (SD), rat, plasma, iv, 2 mg/kg, 2MPK, 20%HP-B-CD solution, SD rats
Measured Parameter: half-life (min)
Give a bare numeral; the unit min is implied.

Could you share which half-life value was measured for CC(C)(O)c1nc(N2C[C@H]3CN(C(=O)c4c(F)cccc4-c4ncccn4)C[C@H]3C2)ncc1F [free base crystal form I] ?
54

* * *

assay: PK studies in animals of the free base crystal forms; assay type: in vivo; conditions: Sprague-Dawley (SD), rat, 30 mg/kg; PO, 30MPK, 0.5%HPMC suspension, SD rats, plasma; read-out: tmax
Measured Parameter: Tmax (h)
Give a bare numeral; the unit h is implied.

Could you share which Tmax value was measured for CC(C)(O)c1nc(N2C[C@H]3CN(C(=O)c4c(F)cccc4-c4ncccn4)C[C@H]3C2)ncc1F [free base crystal form II] ?
2

Origin of the recorded values: patent EP4588921A1
